Recorded values, source ChEMBL document CHEMBL5370641.

# protocolText: Metabolic stability in human serum assessed as parent compound remaining at 5 uM incubated for 4 hrs by LC-MS/MS analysis
# Assay type: ADME, cell-free
# assaySetup: read-out: Stability
Numbered stars: 1 amine (or outer) side, 2 acyl side, 3 side chain; on linkers, the order of the positions; unused ones are H or OH. Square brackets hold non-standard residues; d marks the D form. Peptide text beside a SMILES is read from it. * marks the point of attachment. Benzenesulfonyl(4-Cl,3-CF3) = O=S(=O)(c1ccc(Cl)c(C(F)(F)F)c1)*; γGlu = O=C(O)[C@H](CCC(=O)[*:2])N[*:1]; 4Pal = N[C@@H](Cc1ccncc1)C(=O)O; Tle = CC(C)(C)[C@H](N)C(=O)O; β3hP = O=C(O)C[C@@H]1CCCN1
quantityName: remaining at 4 h, 5 µM (%)
The reply should be a number in %, with the unit left off.

May I ask what remaining at 4 h, 5 µM has been recorded for CC(C)(C)[C@H](NC(=O)[C@H](Cc1ccncc1)NC(=O)CNC(=O)CC[C@H](NS(=O)(=O)c1ccc(Cl)c(C(F)(F)F)c1)C(=O)O)C(=O)N1CCC[C@H]1CC(N)=O ({Benzenesulfonyl(4-Cl,3-CF3)-γGlu}-G[4Pal][Tle][β3hP]-NH2) ? 101

* * *

# protocolText: Protein binding in mouse serum incubated for 4 hrs by equilibrium dialysis based LC-MS/MS analysis
# Type: ADME, cell-free
# assaySetup: read-out: PB (converted)
Numbered stars: 1 amine (or outer) side, 2 acyl side, 3 side chain; on linkers, the order of the positions; unused ones are H or OH. Square brackets hold non-standard residues; d marks the D form. Peptide text beside a SMILES is read from it. * marks the point of attachment. Benzenesulfonyl(4-Cl,3-CF3) = O=S(=O)(c1ccc(Cl)c(C(F)(F)F)c1)*; γGlu = O=C(O)[C@H](CCC(=O)[*:2])N[*:1]; 4Pal = N[C@@H](Cc1ccncc1)C(=O)O; Tle = CC(C)(C)[C@H](N)C(=O)O; β3hP = O=C(O)C[C@@H]1CCCN1
quantityName: fraction unbound at 4 h

May I ask what fraction unbound at 4 h has been recorded for CC(C)(C)[C@H](NC(=O)[C@H](Cc1ccncc1)NC(=O)CNC(=O)CC[C@H](NS(=O)(=O)c1ccc(Cl)c(C(F)(F)F)c1)C(=O)O)C(=O)N1CCC[C@H]1CC(N)=O ({Benzenesulfonyl(4-Cl,3-CF3)-γGlu}-G[4Pal][Tle][β3hP]-NH2) ? 0.368

* * *

# protocolText: Metabolic stability in human liver microsome assessed as intrinsic clearance at 1 uM incubated for 15 mins by LC-MS analysis
# Format: ADME
# assaySetup: liver microsomes, read-out: CLH (converted)
Numbered stars: 1 amine (or outer) side, 2 acyl side, 3 side chain; on linkers, the order of the positions; unused ones are H or OH. Square brackets hold non-standard residues; d marks the D form. Peptide text beside a SMILES is read from it. * marks the point of attachment. Benzenesulfonyl(4-Cl,3-CF3) = O=S(=O)(c1ccc(Cl)c(C(F)(F)F)c1)*; γGlu = O=C(O)[C@H](CCC(=O)[*:2])N[*:1]; 4Pal = N[C@@H](Cc1ccncc1)C(=O)O; Tle = CC(C)(C)[C@H](N)C(=O)O; β3hP = O=C(O)C[C@@H]1CCCN1
quantityName: CLint scaled at 1 µM
Note: state the figure and append the unit.

May I ask what CLint scaled at 1 µM has been recorded for CC(C)(C)[C@H](NC(=O)[C@H](Cc1ccncc1)NC(=O)CNC(=O)CC[C@H](NS(=O)(=O)c1ccc(Cl)c(C(F)(F)F)c1)C(=O)O)C(=O)N1CCC[C@H]1CC(N)=O ({Benzenesulfonyl(4-Cl,3-CF3)-γGlu}-G[4Pal][Tle][β3hP]-NH2) ? 13.6 mL/min/kg
